pEC50 listing for selected compounds.
Test system: Plasmodium falciparum
Procedure Details: Antimalarial activity against chloroquine-resistant Plasmodium falciparum K1 infected in erythroctes incubated for 72 hrs by SYBR green 1 based spectrofluorometer
Type: functional, organism-based, Erythrocyte
Conditions Used: erythrocyte
pEC50: −log10 of the molar value.
Observed Property: pEC50

compound="CCCC1=C(C(=O)OCC)C(c2ccccc2Cl)C2=C(CC(c3ccc(OC)c(OC)c3)CC2=O)N1 (stereo in doubt; 43A)" data_value=7.58
compound="CCOC(=O)C1=C(C)NC2=C(C(=O)CC(c3ccc(Cl)c(OC)c3)C2)C1c1ccccc1Cl (mixture of isomers)" data_value=7.29
compound="CCCC1=C(C(=O)OCC)C(c2ccccc2Cl)C2=C(CC(c3ccc(OC)c(OC)c3)OC2=O)N1 (stereo in doubt; 32A)" data_value=6.38
compound="CCOC(=O)C1=C(C)NC2=C(C(=O)OC(c3ccc(OC)c(OC)c3)C2)C1c1ccccc1Cl (stereo in doubt; 3B)" data_value=7.27
